Tested on: GRK4
Settings: concentration: 1 μM, replicates: in singlicate; n = 1
assay_endpoint: %Inh (%)
Numbers only here, please. The scale is %.

Sample answers from the record:
INSERT INTO measurements (compound, assay_endpoint, quantitative_result) VALUES
  ('COc1ccc(-c2cc3c(C)nc(N)nc3n([C@H]3CC[C@H](OCCO)CC3)c2=O)cn1', '%Inh', 1),
  ('Cc1ccccc1COc1cc(-n2cnc3cc(Cl)ccc32)sc1C(N)=O', '%Inh', 2),
  ('COc1cc(Nc2nccc(N3CCC(NC(=O)C4COc5ccccc5O4)C3)n2)cc(OC)c1OC (stereo not drawn)', '%Inh', 0),
  ('O=C(NCCNc1ccnc(Nc2ccc(F)cc2)n1)Nc1ccc2c(c1)OCO2', '%Inh', 0),
  ('CCn1c(-c2ccoc2)nc2cnccc21', '%Inh', 0);

Asked: For COC(=O)c1c(-c2ccccc2)c2cc(Br)ccc2c(=O)n1Cc1ccc(S(C)(=O)=O)cc1 , write its %Inh.
Given back: 0

Asked: # return recorded %Inh for entry COc1cccc(C2=C(N(C)c3ccccc3)C(=O)NC2=O)c1
Given back: 0

Asked: Dear colleague, please send me the reported %Inh for CC(C)(C)c1ccc(C(=O)Nc2cn3cc(-c4ccccc4)ccc3n2)cc1 when you can.
Given back: 26

Asked: Answer with the recorded %Inh for the compound listed here: O=C(Nc1n[nH]c2nc(-c3ccccc3)c(Br)cc12)C1CC1
Given back: 14

---

Test system: JNK1;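 further: kd values determined as follow-up on hits from a single-replicate KINOMEscan panel screen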
Construct: gene MAPK8
Classify: Met when Kd is strictly less than 40 nM; Not met when Kd is not.

Asked: Determine whether this molecule shows Kd lower than 40 nM (ties excluded): CCC(=O)c1c(-c2ccccc2)c2cc(Cl)ccc2c(=O)n1Cc1cc(C(=O)NC2CC2)n(C)n1
Given back: Met

Asked: Would you kindly verify if Kd of CCC(=O)c1c(-c2ccccc2)c2cc(Cl)ccc2c(=O)n1Cc1cc(S(C)(=O)=O)n(CC(F)F)n1 is strictly less than 40 nM?
Given back: Met

Asked: Decide: Kd of CCC(=O)c1c(-c2ccccc2)c2cc(Cl)ccc2c(=O)n1Cc1cc(S(C)(=O)=O)n(CC(N)=O)n1 strictly below 40 nM?
Given back: Not met

Asked: In plain terms, does COC(=O)c1c(-c2ccccc2)c2cc(Br)ccc2c(=O)n1Cc1ccc(NC(=O)CCC(=O)O)cc1 come in under 40 nM for Kd?
Given back: Not met

Asked: Regarding CCC(=O)c1c(-c2ccccc2)c2cc(Cl)ccc2c(=O)n1Cc1cc(S(C)(=O)=O)n(CCC(C)(C)O)n1 , kindly confirm whether its Kd is beneath 40 nM.
Given back: Met

---

Below: a set of entries, each annotated with reported %Inh.
System: ASK1
Construct: gene MAP3K5
Details: concentration: 1 μM, replicates: in singlicate; n = 1
Kindly provide the numeric value in % only, without the unit symbol.

Reference set (4 entries):
INSERT INTO assay_data (compound, assay_endpoint, result_units, quantitative_result) VALUES
  ('Cc1cccc(-c2nc(Nc3ccc4c(cnn4C)c3)c3ccccc3n2)n1 [GW876731]', '%Inh', '%', 0),
  ('COc1ccc(-n2cnc3c(N)ncnc32)cc1 [SKF-97236]', '%Inh', '%', 0),
  ('COc1ccc(-c2cc3c(C)nc(N)nc3n([C@H]3CC[C@H](OCCO)CC3)c2=O)cn1', '%Inh', '%', 11),
  ('O=C1NC(=O)C(c2ccccc2)=C1Nc1cccc(O)c1 [SB-390534]', '%Inh', '%', 0);

Next compound, %Inh to be filled in.
Asked: Respond only with %Inh recorded for COc1cc2nccc(Nc3ccc(OCc4ccc(NC(C)=O)cc4)cc3)c2cc1OC.Cl [GW440135]
Given back: 3

---

Test system: CSNK1G2
Settings: concentration: 1 μM, replicates: in singlicate; n = 1
Known %Inh of a selection of compounds
Field: value (include unit after the number)

Known results for compounds:
INSERT INTO measurements (compound, assay_endpoint, result) VALUES
  ('COc1cc2ncn(-c3cc(OCc4ccncc4Br)c(C(N)=O)s3)c2cc1OC', '%Inh', '0%'),
  ('C[C@@H]1CC[C@H](C(=O)NC2CCCCC2)CN1c1cc(-c2ccc3c(N)n[nH]c3c2)nc(N)n1', '%Inh', '3%'),
  ('CCCNC(=O)Nc1ccc(Oc2ncnc3ccn(C)c23)cc1', '%Inh', '11%'),
  ('Cc1cc(Nc2nc(-c3cccc(C)n3)nc3ccccc23)ccn1', '%Inh', '0%'),
  ('CCC(=O)c1c(-c2ccccc2)c2cc(Cl)ccc2c(=O)n1Cc1cc(S(C)(=O)=O)n(CC(N)=O)n1', '%Inh', '0%'),
  ('CCn1c(-c2ccoc2)nc2cnccc21', '%Inh', '0%');

Asked: Answer with reported %Inh of COc1cccc(C2=C(Nc3cccc(C(=O)O)c3)C(=O)NC2=O)c1
Given back: 0%

Asked: Return %Inh for the following compound: CCC(=O)c1c(-c2ccccc2)c2cc(Cl)ccc2c(=O)n1Cc1cc(S(C)(=O)=O)n(CC(F)F)n1
Given back: 7%

Asked: Indicate the recorded %Inh value for this compound: Nc1nc(-c2ccccc2F)c(-c2ccnc3ccccc23)s1
Given back: 1%

Asked: Fill in %Inh for record CCc1nc(-c2cccc(C)c2)c(-c2ccncc2)s1
Given back: 10%

Asked: Please report the measured %Inh for Cn1c(=O)c(F)c(Nc2ccc(I)cc2F)c2c(=O)n(OC[C@H](O)CO)cnc21
Given back: 20%

Asked: Give the measured %Inh for Cl.c1ccc(Cn2cnc3cc(Nc4ncnc5ccccc45)ccc32)cc1
Given back: 1%

Asked: Hello, please tell me recorded %Inh for this one: COc1ccc(Nc2nccc(N3CCC(NS(=O)(=O)c4ccc(NC(C)=O)cc4)C3)n2)cc1 (centres unmarked)
Given back: 18%

Asked: For COc1cccc(C2=C(N(C)c3ccccc3)C(=O)NC2=O)c1 , write its %Inh.
Given back: 0%

Asked: Entry CCS(=O)(=O)c1ccc(OC)c(Nc2ncc(-c3ccc(F)cc3)o2)c1.Cl needs its %Inh filled in; supply it.
Given back: 0%

Asked: Read the entry O=C(Nc1n[nH]c2nc(-c3ccccc3)c(Cl)cc12)C1CC1 and write its reported %Inh.
Given back: 0%

Asked: Please indicate %Inh recorded for CCS(=O)c1ccc(-c2coc3ccc(-c4nnc(C)o4)cc23)cc1 (centres unmarked)
Given back: 0%

---

System: RSK1(Kin.Dom.1-N-terminal)
Construct: gene RPS6KA1
Conditions: concentration: 1 μM, replicates: in singlicate; n = 1
We label by threshold. Values of %Inh strictly beneath 2% are met. Values of 2% and up are not met.

These solved cases illustrate the format of a correct answer.
INSERT INTO assay_data (compound, group) VALUES
  ('COc1cc2nccc(Nc3cccc(Oc4ccccc4)c3)c2cc1OC.Cl', 'met'),
  ('CCCC(=O)Nc1n[nH]c2ncc(-c3cccc4ccccc34)cc12', 'not met'),
  ('Cc1nc(N(C)[C@H]2CN(C(=O)CC#N)CC[C@H]2C)c2cc[nH]c2n1', 'not met'),
  ('CN1C(=O)C(Nc2cc(Cl)c(O)c(Cl)c2)=C(c2ccc(Cl)cc2)C1=O', 'met'),
  ('O=c1cc(N2CCOCC2)nc2n(Cc3ccc(F)c(Cl)c3)ccn12', 'not met'),
  ('CCn1c(-c2nonc2N)nc2ccccc21', 'not met'),
  ('COc1cc2ncn(-c3cc(OCc4ccncc4)c(C(N)=O)s3)c2cc1OC', 'not met'),
  ('Cc1ccccc1COc1cc(-n2cnc3cc(Cl)ccc32)sc1C(N)=O', 'not met');

Asked: Problem: For the compound Nc1nccc2scc(-c3ccc4c(c3)CCN4C(=O)Cc3ccccc3)c12 , is %Inh under 2%?
Given back: not met

---

System: PLK1
Settings: concentration: 1 μM, replicates: in singlicate; n = 1
assay_endpoint: %Inh (%)
# value in %; strip the unit string

Illustrative cases are given below, each with its answer.
INSERT INTO results (molecule, assay_endpoint, result_units, quantitative_result) VALUES
  ('Cc1ccc(Oc2ccc(Nc3ncnc4cc[nH]c34)cc2C)cn1', '%Inh', '%', 50),
  ('COc1cc2nccc(Nc3cccc(Oc4ccccc4)c3)c2cc1OC.Cl', '%Inh', '%', 0);

Asked: Give %Inh for CCn1c(-c2nonc2N)nc2ccccc21
Given back: 62

Asked: Answer with the recorded %Inh of CCS(=O)(=O)c1ccc(OC)c(Nc2ncc(-c3ccc(F)cc3)o2)c1.Cl only.
Given back: 0

Asked: Name the recorded %Inh of the molecule listed here: Cc1nn2c(=O)cc(N3CCOCC3)nc2n1Cc1cccc(Cl)c1Cl
Given back: 5

Asked: Look up and state reported %Inh for COc1cc(OC)cc(-c2cc3cnc(N)nc3nc2NC(=O)NC(C)(C)C)c1
Given back: 0

Asked: Identify measured %Inh corresponding to COc1ccc(-c2cc3c(C)nc(N)nc3n([C@H]3CC[C@H](OCCO)CC3)c2=O)cn1
Given back: 0

Asked: Find the measured %Inh of CCn1c(-c2ccoc2)nc2cnccc21 and report it.
Given back: 5

Asked: Answer with reported %Inh of Fc1cccc(CSc2nnc(-c3ccc4c(c3)CCO4)o2)c1
Given back: 0

Asked: Quick one: give measured %Inh for Cc1cccc(-c2cc(-c3c[nH]nc3-c3ccccn3)ccn2)c1
Given back: 0

Asked: Please give measured %Inh of the following entry: COc1cccc(C2=C(Nc3cccc(C(=O)O)c3)C(=O)NC2=O)c1
Given back: 6

Asked: Supply measured %Inh of O=C(NCCNc1ccnc(Nc2ccc(F)cc2)n1)Nc1ccc2c(c1)OCO2 in your reply.
Given back: 4

Asked: Query %Inh for COc1cccc(-n2cnc3c(N)ncnc32)c1
Given back: 58

Asked: Give %Inh for COc1cc(Nc2ccnc3ccc(C(F)(F)F)cc23)cc(OC)c1OC
Given back: 12
